tested on: Candida parapsilosis; assay: Antifungal activity against Candida parapsilosis ATCC 22019 assessed as inhibition of fungal growth incubated for 24 hrs by CLSI based microbroth dilution method; type: functional; details: Lodderomyces parapsilosis
experimental-readout: MIC (µM)
Write it as a number; the unit µM goes unstated.

C/C(Cn1c([N+](=O)[O-])cnc1C)=N\Nc1ccc2c3c(cccc13)C(=O)N(c1ccc(Cl)cc1Cl)C2=O: 119

Observed MIC on Candida parapsilosis, entry O=C1c2cccc3c(N/N=C/c4nccs4)ccc(c23)C(=O)N1CCO , equals 175

Measured MIC (Candida parapsilosis), entry O=C1c2cccc3c(N/N=C/c4ccc(O)cc4O)ccc(c23)C(=O)N1CCO : 327

Lab entry: Candida parapsilosis assay, compound CCCCCCCCN1C(=O)c2cccc3c(N/N=C(\C)Cn4c([N+](=O)[O-])cnc4C)ccc(c23)C1=O , MIC = 1020

Record C[n+]1ccc(/C=N/Nc2ccc3c4c(cccc24)C(=O)N(CCO)C3=O)cc1 ; system Candida parapsilosis; MIC = 64
